# method description: Oral bioavailability in rat at 2.0 mg/kg
# Assay type: ADME, organism-based
# protocol conditions: in vivo
Consider the following compounds; for each one, report its bioavailability.

query: State the recorded bioavailability for this entry: "C[C@](O)(c1ccc(C(=O)N(C2CC2)[C@H]2CC[C@H](CCC#N)CC2)cc1)C(F)(F)F"
result: 83%

query: Then "C[C@](O)(c1ccc(C(=O)N(C2CC2)[C@H]2CC[C@H](c3cccnc3)CC2)cc1)C(F)(F)F" ?
result: 72%

query: Then "C[C@](O)(c1ccc(C(=O)N(C2CC2)[C@H]2CC[C@H](c3ccc(C#N)cc3)CC2)cc1)C(F)(F)F" ?
result: 29%

---

# method description: Half life in dog at 0.5, iv
# Format: ADME, organism-based, Canis lupus familiaris
# protocol conditions: in vivo
reported metric: half-life (h)
Give just the number in h; leave the unit off.

query: State the recorded half-life for this entry: "C[C@](O)(c1ccc(C(=O)N(C2CC2)[C@H]2CC[C@H](c3cccnc3)CC2)cc1)C(F)(F)F"
result: 9.3

---

# method description: Metabolic stability in human liver microsomes assessed as compound remaining at 1 uM after 30 mins
# Type: ADME, Microsome
# protocol conditions: read-out: Stability
Could you please mark Y for values of remaining at 0.5 h, 1 µM below 20% and N for values at or above it?

query: Does "C[C@](O)(c1ccc(C(=O)N(C2CC2)[C@H]2CC[C@H](c3ccccc3)CC2)cc1)C(F)(F)F" have remaining at 0.5 h, 1 µM strictly under 20%?
result: N

query: Then "C[C@](O)(c1ccc(C(=O)N(C2CC2)[C@H]2CC[C@H](CCC#N)CC2)cc1)C(F)(F)F" ?
result: N

query: Then "C[C@](O)(c1ccc(C(=O)N(CC(F)(F)F)C2CCCCC2)cc1)C(F)(F)F" ?
result: Y

query: Then "C[C@](O)(c1ccc(C(=O)N(C2CC2)[C@H]2CC[C@@H](c3ccccc3)CC2)cc1)C(F)(F)F" ?
result: Y

query: Then "CCN(C(=O)c1ccc([C@](C)(O)C(F)(F)F)cc1)C1CCCCC1" ?
result: Y

query: Then "C[C@](O)(c1ccc(C(=O)N(C2CC2)[C@H]2CC[C@H](c3cccnc3)CC2)cc1)C(F)(F)F" ?
result: N

query: Then CC(O)(c1ccc(C(=O)N(CC2CC2)C2CCCCC2)cc1)C(F)(F)F (racemic) ?
result: N

query: Then "C[C@](O)(c1ccc(C(=O)N(C2CC2)[C@H]2CC[C@H](c3ccc(C#N)cc3)CC2)cc1)C(F)(F)F" ?
result: N

query: Then "C[C@](O)(c1ccc(C(=O)N(C2CC2)[C@H]2CC[C@H](F)CC2)cc1)C(F)(F)F" ?
result: N

query: Then "C[C@](O)(c1ccc(C(=O)N(C2CCCCC2)C2CC2)cc1)C(F)(F)F" ?
result: N

---

# method description: Volume of distribution at steady state in rat at 0.5 mg/kg, iv
# Format: ADME, organism-based
# Parameters: dose 0.5 mg/kg, route intravenous
# protocol conditions: in vivo, read-out: Vdss
reported metric: Vd (L/kg)
Give just the number in L/kg; leave the unit off.

query: State the recorded Vd for this entry: "C[C@](O)(c1ccc(C(=O)N(C2CC2)[C@H]2CC[C@H](c3cccnc3)CC2)cc1)C(F)(F)F"
result: 6.7

---

# method description: Volume of distribution at steady state in cynomolgus monkey at 0.5, iv
# Format: ADME, organism-based, Macaca fascicularis
# protocol conditions: in vivo, read-out: Vdss
reported metric: Vd (L/kg)
Give just the number in L/kg; leave the unit off.

query: State the recorded Vd for this entry: "C[C@](O)(c1ccc(C(=O)N(C2CC2)[C@H]2CC[C@H](c3cccnc3)CC2)cc1)C(F)(F)F"
result: 8.1

---

Consider the following compounds; for each one, report its pIC50.
# experimental target: 11-beta-hydroxysteroid dehydrogenase 1 (Homo sapiens)
# Sequence (P28845 whole entry): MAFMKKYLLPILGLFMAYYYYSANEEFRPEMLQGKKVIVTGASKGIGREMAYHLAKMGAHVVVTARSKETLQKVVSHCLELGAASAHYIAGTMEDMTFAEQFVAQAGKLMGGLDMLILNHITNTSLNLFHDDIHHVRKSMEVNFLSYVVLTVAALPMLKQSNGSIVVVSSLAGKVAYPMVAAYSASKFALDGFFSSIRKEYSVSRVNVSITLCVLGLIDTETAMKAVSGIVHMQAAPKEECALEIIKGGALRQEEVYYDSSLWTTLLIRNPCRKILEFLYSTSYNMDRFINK
# method description: Inhibition of human cloned 11beta-HSD1 by scintillation proximity assay
In plain terms, pIC50 is the concentration in mol/L turned into minus its base-10 logarithm.

query: State the recorded pIC50 for this entry: "C[C@](O)(c1ccc(C(=O)N(C2CC2)[C@H]2CC[C@H](c3ccccc3)CC2)cc1)C(F)(F)F"
result: 8.89

query: Then "C[C@](O)(c1ccc(C(=O)N(C2CC2)[C@H]2CC[C@H](CCC#N)CC2)cc1)C(F)(F)F" ?
result: 9.15

query: Then "C[C@](O)(c1ccc(C(=O)N(C2CC2)[C@H]2CC[C@@H](c3ccccc3)CC2)cc1)C(F)(F)F" ?
result: 8.21

query: Then "C[C@](O)(c1ccc(C(=O)N(C2CC2)[C@H]2CC[C@H](F)CC2)cc1)C(F)(F)F" ?
result: 8.18

query: Then "CCN(C(=O)c1ccc([C@](C)(O)C(F)(F)F)cc1)C1CCCCC1" ?
result: 8.89

query: Then "C[C@](O)(c1ccc(C(=O)N(C2CCCCC2)C2CC2)cc1)C(F)(F)F" ?
result: 9.10

query: Then CC(O)(c1ccc(C(=O)N(CC2CC2)C2CCCCC2)cc1)C(F)(F)F (racemic) ?
result: 8.05

query: Then "C[C@](O)(c1ccc(C(=O)N(CC(F)(F)F)C2CCCCC2)cc1)C(F)(F)F" ?
result: 8.59

query: Then "C[C@](O)(c1ccc(C(=O)N(C2CC2)[C@H]2CC[C@H](c3cccnc3)CC2)cc1)C(F)(F)F" ?
result: 8.85

query: Then "C[C@](O)(c1ccc(C(=O)N(C2CC2)[C@H]2CC[C@H](c3ccc(C#N)cc3)CC2)cc1)C(F)(F)F" ?
result: 9.15

---

# System: Cynomolgus monkey
# method description: AUC in cynomolgus monkey at 0.5, iv
# Format: ADME, organism-based, Macaca fascicularis, Plasma
# protocol conditions: in vivo
reported metric: AUC (ng·h/mL)
Give just the number in ng·h/mL; leave the unit off.

query: Record lookup: for Cynomolgus monkey, what AUC belongs to "C[C@](O)(c1ccc(C(=O)N(C2CC2)[C@H]2CC[C@H](c3cccnc3)CC2)cc1)C(F)(F)F" ?
result: 1010

---

# experimental target: UniProtKB P28845
# method description: Inhibition of 11beta-HSD1 in human adipocytes
# Assay type: cell-based
reported metric: IC50 (nM)
Give just the number in nM; leave the unit off.

query: State the recorded IC50 for this entry: "C[C@](O)(c1ccc(C(=O)N(C2CC2)[C@H]2CC[C@H](CCC#N)CC2)cc1)C(F)(F)F"
result: 0.2

query: Then "C[C@](O)(c1ccc(C(=O)N(C2CC2)[C@H]2CC[C@H](c3cccnc3)CC2)cc1)C(F)(F)F" ?
result: 3

query: Then "C[C@](O)(c1ccc(C(=O)N(C2CC2)[C@H]2CC[C@H](c3ccc(C#N)cc3)CC2)cc1)C(F)(F)F" ?
result: 3.4

query: Then "C[C@](O)(c1ccc(C(=O)N(C2CC2)[C@H]2CC[C@H](F)CC2)cc1)C(F)(F)F" ?
result: 4.1

query: Then "C[C@](O)(c1ccc(C(=O)N(C2CC2)[C@H]2CC[C@H](c3ccccc3)CC2)cc1)C(F)(F)F" ?
result: 9.8

---

# method description: Volume of distribution at steady state in dog at 0.5, iv
# Assay type: ADME, organism-based, Canis lupus familiaris
# protocol conditions: in vivo, read-out: Vdss
reported metric: Vd (L/kg)
Give just the number in L/kg; leave the unit off.

query: State the recorded Vd for this entry: "C[C@](O)(c1ccc(C(=O)N(C2CC2)[C@H]2CC[C@H](c3cccnc3)CC2)cc1)C(F)(F)F"
result: 3.5

---

# Tested on: Canis familiaris
# method description: AUC in dog at 0.5, iv
# Type: ADME, organism-based, Canis lupus familiaris, Plasma
# protocol conditions: in vivo
reported metric: AUC (ng·h/mL)
Give just the number in ng·h/mL; leave the unit off.

query: State the recorded AUC for this entry: "C[C@](O)(c1ccc(C(=O)N(C2CC2)[C@H]2CC[C@H](c3cccnc3)CC2)cc1)C(F)(F)F"
result: 915

---

# method description: Inhibition of cynomolgus monkey recombinant 11beta-HSD1
# Parameters: species or system Macaca fascicularis
reported metric: IC50

query: State the recorded IC50 for this entry: "C[C@](O)(c1ccc(C(=O)N(C2CC2)[C@H]2CC[C@H](c3cccnc3)CC2)cc1)C(F)(F)F"
result: 39 nM

---

# method description: Metabolic stability in rat liver microsomes assessed as compound remaining at 1 uM after 30 mins
# Type: ADME, Microsome
# protocol conditions: read-out: Stability
reported metric: remaining at 0.5 h, 1 µM

query: State the recorded remaining at 0.5 h, 1 µM for this entry: "CCN(C(=O)c1ccc([C@](C)(O)C(F)(F)F)cc1)C1CCCCC1"
result: < 5%

query: Then "C[C@](O)(c1ccc(C(=O)N(C2CC2)[C@H]2CC[C@H](CCC#N)CC2)cc1)C(F)(F)F" ?
result: 42%

query: Then "C[C@](O)(c1ccc(C(=O)N(C2CC2)[C@H]2CC[C@H](c3ccccc3)CC2)cc1)C(F)(F)F" ?
result: > 90%

query: Then "C[C@](O)(c1ccc(C(=O)N(C2CC2)[C@H]2CC[C@@H](c3ccccc3)CC2)cc1)C(F)(F)F" ?
result: < 5%

query: Then "C[C@](O)(c1ccc(C(=O)N(C2CC2)[C@H]2CC[C@H](c3ccc(C#N)cc3)CC2)cc1)C(F)(F)F" ?
result: > 90%

query: Then "C[C@](O)(c1ccc(C(=O)N(C2CC2)[C@H]2CC[C@H](F)CC2)cc1)C(F)(F)F" ?
result: 16%

query: Then "C[C@](O)(c1ccc(C(=O)N(C2CC2)[C@H]2CC[C@H](c3cccnc3)CC2)cc1)C(F)(F)F" ?
result: 51%

query: Then "C[C@](O)(c1ccc(C(=O)N(CC(F)(F)F)C2CCCCC2)cc1)C(F)(F)F" ?
result: < 5%

query: Then "C[C@](O)(c1ccc(C(=O)N(C2CCCCC2)C2CC2)cc1)C(F)(F)F" ?
result: < 5%

query: Then CC(O)(c1ccc(C(=O)N(CC2CC2)C2CCCCC2)cc1)C(F)(F)F (racemic) ?
result: < 5%
